- target entity: SARS-CoV-2 fusion peptide (FP) coldspot peptide, 812-831 (SARS-CoV-2 (ancestral), biotin-Ahx at the N-terminus; C-terminal amidation)
measure name: binding result

binder="fp.003 (antibody, V domains shown) VH: VQLVESGGGVVQPGTSLRLSCTASGFSFSNYAMHWVRQAPGKGLEWVAIISFDTRNKEFADSVKGRFSISRDNSKNSLNLQMNSLRPEDTGVYYCARDLFLSDYDSRGYEPSRGGFDYWGQGTLVTVSS VL: EIVMTQSPATLSVSPGERATLSCRASQSVSSSLAWYQQKLGQPPRLLIYGASTRATGIPARFSGSGSGTEFTLTISSLKSEDSAVYYCQQYNDWPLLSFGGGTKVEIK" reported=binds

Data provenance: paper PMC9972897
